assay: activity coefficient (dimensionless); of the first substance listed, at infinite dilution; xn = mol fraction of the nth substance listed; conditions: 343.15 K; 101.3 kPa; Liquid; Chromatography; x1 = 0
# activity coefficient values compiled below

These solved cases illustrate the format of a correct answer.
COMPOUND | RESULT
c1ccccc1 [benzene] + CCn1cc[n+](C)c1.COP(=O)([O-])OC | 3.12
CC1CCCCC1 [methylcyclohexane] + CCn1cc[n+](C)c1.COP(=O)([O-])OC | 55.9
CC(C)CC(C)(C)C [2,2,4-trimethylpentane] + COP(=O)([O-])OC.Cn1cc[n+](C)c1 | 270
Cc1ccc(C)cc1 [1,4-dimethylbenzene] + COP(=O)([O-])OC.Cn1cc[n+](C)c1 | 13.4
CC(C)CC(C)(C)C [2,2,4-trimethylpentane] + CCn1cc[n+](C)c1.COP(=O)([O-])OC | 143

Now let's try a different one.
Q: What measured activity coefficient goes with C=Cc1ccccc1 [styrene] + COP(=O)([O-])OC.Cn1cc[n+](C)c1 ?
A: 6.6
